molecular target: Carbonic anhydrase 9 (Homo sapiens)
Assign Ki to each entry below.
Answers are plain numbers, in nM.

Illustrative cases are given below, each with its answer.
[
  {
    "Substance smiles": "NS(=O)(=O)c1ccc(NC(=S)N[C@@H]2O[C@H](CO)[C@@H](O[C@H]3O[C@H](CO)[C@@H](O)[C@H](O)[C@H]3O)[C@H](O)[C@H]2O)cc1",
    "System": "Carbonic anhydrase 9 (Homo sapiens)",
    "Ki, nM": 8.4
  },
  {
    "Substance smiles": "CC(=O)OC[C@H]1O[C@@H](NC(=S)NCCc2ccc(S(N)(=O)=O)cc2)[C@H](OC(C)=O)[C@@H](OC(C)=O)[C@H]1OC(C)=O",
    "System": "Carbonic anhydrase 9 (Homo sapiens)",
    "Ki, nM": 433
  },
  {
    "Substance smiles": "NS(=O)(=O)c1ccc(CCNC(=S)N[C@@H]2O[C@H](CO)[C@H](O)[C@H](O)[C@H]2O)cc1",
    "System": "Carbonic anhydrase 9 (Homo sapiens)",
    "Ki, nM": 2.8
  },
  {
    "Substance smiles": "NS(=O)(=O)c1ccc(CNC(=S)N[C@@H]2O[C@H](CO)[C@H](O)[C@H](O)[C@H]2O)cc1",
    "System": "Carbonic anhydrase 9 (Homo sapiens)",
    "Ki, nM": 6.9
  },
  {
    "Substance smiles": "CC(=O)OC[C@H]1O[C@@H](NC(=S)NCCc2ccc(S(N)(=O)=O)cc2)[C@H](OC(C)=O)[C@@H](OC(C)=O)[C@@H]1OC(C)=O",
    "System": "Carbonic anhydrase 9 (Homo sapiens)",
    "Ki, nM": 451
  }
]

Each compound below has a reported value. Please supply its Ki.
1. NS(=O)(=O)c1ccc(CCNC(=S)N[C@@H]2O[C@H](CO)[C@@H](O[C@@H]3O[C@H](CO)[C@H](O)[C@H](O)[C@H]3O)[C@H](O)[C@H]2O)cc1
2. CC(=O)OC[C@H]1O[C@@H](NC(=S)NNC(=O)c2ccc(S(N)(=O)=O)cc2)[C@H](OC(C)=O)[C@@H](OC(C)=O)[C@@H]1OC(C)=O
3. NS(=O)(=O)c1ccc(CCNC(=S)N[C@@H]2O[C@H](CO)[C@@H](O[C@H]3O[C@H](CO)[C@@H](O)[C@H](O)[C@H]3O)[C@H](O)[C@H]2O)cc1
4. NS(=O)(=O)c1ccc(NC(=S)N[C@@H]2O[C@H](CO)[C@@H](O)[C@H](O)[C@H]2O)cc1

1: 8.9; 2: 8.7; 3: 2.1; 4: 282
